method.description: Oral pharmacokinetics of 20(S)-Rh2 and 20(R)-Rh2 in rats (stereoselective LC-MS)
Type: in vivo, rat
condition.set: Sprague-Dawley, rat, in vivo, po, 25 mg/kg, plasma analyte after i.g. 20(R)-Rh2 25 mg/kg, rats; read-out: MRT 0-t (converted)
Listing of recorded MRT last by entry.
measurement.label: MRT last (h)

{"molecule": "CC(C)=CCC[C@@](C)(O)[C@H]1CC[C@]2(C)[C@@H]1[C@H](O)C[C@@H]1[C@@]3(C)CC[C@H](O[C@@H]4O[C@H](CO)[C@@H](O)[C@H](O)[C@H]4O)C(C)(C)[C@@H]3CC[C@]12C [20(R)-Rh2, 20(R)-ginsenoside Rh2]", "measured.result": 4.65}
{"molecule": "CC(C)=CCC[C@](C)(O)[C@H]1CC[C@]2(C)[C@@H]1[C@H](O)C[C@@H]1[C@@]3(C)CC[C@H](O[C@@H]4O[C@H](CO)[C@@H](O)[C@H](O)[C@H]4O)C(C)(C)[C@@H]3CC[C@]12C [20(S)-Rh2, 20(S)-ginsenoside Rh2]", "measured.result": 2.2}

Reference for the values: paper PMC3329467
